# measurement-target: COX-2 (Homo sapiens)
# Sequence (P35354 18-604): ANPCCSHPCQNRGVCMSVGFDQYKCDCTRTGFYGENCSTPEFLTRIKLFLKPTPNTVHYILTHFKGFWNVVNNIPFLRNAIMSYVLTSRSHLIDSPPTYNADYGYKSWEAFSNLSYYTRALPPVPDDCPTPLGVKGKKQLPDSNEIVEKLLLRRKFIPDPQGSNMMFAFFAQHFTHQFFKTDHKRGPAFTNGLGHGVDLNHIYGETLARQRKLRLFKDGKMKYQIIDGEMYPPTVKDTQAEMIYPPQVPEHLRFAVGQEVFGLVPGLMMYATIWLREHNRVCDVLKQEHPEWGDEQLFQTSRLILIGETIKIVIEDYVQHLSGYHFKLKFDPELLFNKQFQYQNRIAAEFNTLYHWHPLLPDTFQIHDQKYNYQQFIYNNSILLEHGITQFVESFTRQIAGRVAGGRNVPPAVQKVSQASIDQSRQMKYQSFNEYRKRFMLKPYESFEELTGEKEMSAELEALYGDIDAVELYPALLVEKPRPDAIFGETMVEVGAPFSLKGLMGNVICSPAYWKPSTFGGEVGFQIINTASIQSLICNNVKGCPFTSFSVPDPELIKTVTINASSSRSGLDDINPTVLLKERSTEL
test-readout: IC50 (µM)
Numbers only; they are read as µM.

Consider the molecule shown here: CC(=O)N/C=C/c1ccc2c(c1)O[C@H](c1ccc(O)c(O)c1)[C@H](NC(C)=O)O2 (racemic) [compound 4] What is its recorded IC50?
6.43
